Exercise: state measured pest or weed control at 1000 g/ha for each of the molecules provided.
Tested on: Solanum nigrum (SOLNI)
assay-overview: Post-emergence biological efficacy, glasshouse pot test
Format: in vivo
experimental-conditions: 312 h, 1,000 g/ha, evaluated after 13 days, 100=total damage, 0=no damage, read-out: Percentage damage caused to weed species, post-emergence, SOLNI

GET /values?readout=pest or weed control at 1000 g/ha&item= `COC(=O)c1nc(Cl)cc(NCc2ccncc2)c1Cl` 100%

What would you report for `C=Cc1c(NCc2ccc(N(C)C)cc2)cc(Cl)nc1C(=O)OC` ? 90%

What would you report for `COC(=O)c1nc(Cl)c(Cl)c(NCc2ccccc2[N+](=O)[O-])c1C` ? 100%

What would you report for `COC(=O)c1nc(Cl)cc(NCc2ccccc2C(F)(F)F)c1Cl` ? 100%

What would you report for `C=Cc1c(NCc2ccco2)cc(Cl)nc1C(=O)O` ? 100%

What would you report for `COC(=O)c1nc(Cl)cc(NCc2ccccc2F)c1Cl` ? 100%

What would you report for `COC(=O)c1nc(Cl)cc(NCc2ccco2)c1Cl` ? 100%

What would you report for `COC(=O)c1nc(Cl)cc(NCc2cccs2)c1Cl` ? 100%

What would you report for `C=Cc1c(NCc2ncccc2Cl)cc(Cl)nc1C(=O)OC` ? 90%

What would you report for `C=Cc1c(NCc2ccccc2Cl)cc(Cl)nc1C(=O)OC` ? 90%

What would you report for `COC(=O)c1nc(Cl)cc(NCc2ccc3c(c2)OCO3)c1Cl` ? 100%

What would you report for `C=Cc1c(C(=O)OC)nc(Cl)c(Cl)c1NCc1ccccc1[N+](=O)[O-]` ? 100%

What would you report for `COC(=O)c1nc(Cl)cc(NCc2cccnc2)c1Cl` ? 100%

What would you report for `COC(=O)c1nc(Cl)c(Cl)c(NCc2ccccc2[N+](=O)[O-])c1C(F)(F)F` ? 90%

What would you report for `C=Cc1c(C(=O)OC)nc(Cl)c(Cl)c1NCc1ncccc1Cl` ? 90%

What would you report for `COC(=O)c1nc(-c2ccc(Cl)c(N(C)C)c2F)cc(NCc2ccco2)c1Cl` ? 90%

What would you report for `COC(=O)c1nc(Cl)cc(NCC2CCCCC2)c1Cl` ? 100%

What would you report for `COC(=O)c1nc(Cl)c(F)c(NCc2ccccc2[N+](=O)[O-])c1Br` ? 100%

What would you report for `C=Cc1c(C(=O)OC)nc(Cl)c(F)c1NCc1ccccc1[N+](=O)[O-]` ? 100%

What would you report for `C=Cc1c(NCc2cccs2)cc(Cl)nc1C(=O)OC` ? 100%

What would you report for `COC(=O)c1nc(Cl)c(Cl)c(NCc2ncccc2Cl)c1Br` ? 90%

What would you report for `COC(=O)c1nc(Cl)cc(NCc2ccco2)c1C` ? 90%

What would you report for `COC(=O)c1nc(Cl)cc(NCc2ccco2)c1C1CC1` ? 70%

What would you report for `C=Cc1c(NCC2CC2)cc(Cl)nc1C(=O)OC` ? 90%

What would you report for `C=Cc1c(NCc2ccccc2[N+](=O)[O-])cc(Cl)nc1C(=O)OC` ? 90%

What would you report for `COC(=O)c1nc(Cl)cc(NCc2ccco2)c1Br` ? 90%

What would you report for `C=Cc1c(NCc2ccccc2C(F)(F)F)cc(Cl)nc1C(=O)OC` ? 70%

What would you report for `COC(=O)c1nc(Cl)cc(NCc2ncccc2Cl)c1Br` ? 90%

What would you report for `C=Cc1c(NCc2ccccc2F)cc(Cl)nc1C(=O)OC` ? 90%

What would you report for `COC(=O)c1nc(Cl)cc(NCc2cccc(F)c2)c1Cl` ? 100%

What would you report for `COC(=O)c1nc(Cl)cc(NCC2CCCCCCC2)c1Cl` ? 90%

What would you report for `C=Cc1c(NCC2CCCCC2)cc(Cl)nc1C(=O)OC` ? 80%

What would you report for `C=Cc1c(NCc2ccco2)cc(-c2ccc(Cl)c(OC)c2F)nc1C(=O)OC` ? 100%

What would you report for `COC(=O)c1nc(-c2ccc(Cl)c(OC)c2F)cc(NCc2ccc(OC)cc2OC)c1Cl` ? 90%

What would you report for `COC(=O)c1nc(Cl)cc(NCc2ccccc2OC)c1Cl` ? 90%

What would you report for `COC(=O)c1nc(Cl)cc(NCc2ccccc2)c1Cl` ? 100%

What would you report for `C=Cc1c(NCc2ncccc2C)cc(Cl)nc1C(=O)OC` ? 90%

What would you report for `C=Cc1c(NCc2ccco2)cc(-c2ccc(Cl)c(N(C)C)c2F)nc1C(=O)OC` ? 70%
